IC50 listing for selected molecules.
molecular target: Induced myeloid leukemia cell differentiation protein Mcl-1 (Homo sapiens); assay: Inhibition of human Mcl-1 (172 to 323 residues) expressed in Escherichia coli BL21 using biotinylated-BH3 peptide as substrate measured after 2 hrs by DELFIA displacement assay
Sequence (Q07820 whole entry, the tested form may be a part): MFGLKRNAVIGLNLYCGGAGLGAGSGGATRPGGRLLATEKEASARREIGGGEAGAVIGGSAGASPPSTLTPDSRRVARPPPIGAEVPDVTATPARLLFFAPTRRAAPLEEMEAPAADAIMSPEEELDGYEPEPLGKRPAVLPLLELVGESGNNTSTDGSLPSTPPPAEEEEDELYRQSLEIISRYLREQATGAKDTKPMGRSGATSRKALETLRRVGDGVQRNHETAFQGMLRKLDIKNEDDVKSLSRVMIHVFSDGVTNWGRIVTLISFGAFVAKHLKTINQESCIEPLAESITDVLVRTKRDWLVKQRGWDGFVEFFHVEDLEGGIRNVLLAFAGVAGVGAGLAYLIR
Non-standard residues stand in square brackets, D forms with d. Residues, ends and D or L forms follow the SMILES beside them. *: point of attachment. Benzoyl(2-OMe,5-SO2F) = COc1ccc(S(=O)(=O)F)cc1C(=O)*; Benzoyl(3-SO2F) = O=C(c1cccc(S(=O)(=O)F)c1)*; Benzoyl(4-SO2F) = O=C(c1ccc(S(=O)(=O)F)cc1)*; Nle = CCCC[C@H](N)C(=O)O; Dap = NC[C@H](N)C(=O)O
Please reply with the bare figure in µM and do not write the unit itself.

As a guide, the following entries are already answered.
# MOLECULE, UNIT_ANNOTATION, IC50
data = [
    ("CCCC[C@H](NC(=O)[C@H](C)NC(=O)[C@H](CC(=O)O)NC(=O)CNC(=O)[C@@H](NC(=O)[C@H](CCCNC(=N)N)NC(=O)[C@H](CCCNC(=N)N)NC(=O)[C@H](CC(C)C)NC(=O)[C@H](C)NC(=O)[C@H](CCC(N)=O)NC(=O)[C@H](C)NC(=O)[C@@H](NC(=O)[C@H](C)N)[C@@H](C)CC)[C@@H](C)CC)C(=O)O (H-AIAQALRRIGDA[Nle]-OH)", "µM", 1.6),
    ("CC[C@H](C)[C@H](NC(=O)[C@H](CCCNC(=N)N)NC(=O)[C@H](CCCNC(=N)N)NC(=O)[C@H](CC(C)C)NC(=O)[C@H](CCC(N)=O)NC(=O)[C@H](CCC(=O)O)NC(=O)[C@H](C)NC(=O)[C@@H](NC(=O)[C@H](CNC(=O)c1cc(S(=O)(=O)F)ccc1OC)NC(C)=O)[C@@H](C)CC)C(=O)NCC(=O)N[C@@H](CC(=O)O)C(=O)N[C@@H](CCCNC(=N)N)C(=O)N[C@@H](Cc1ccccc1)C(N)=O (Ac-[Dap](Benzoyl(2-OMe,5-SO2F))IAEQLRRIGDRF-NH2)", "µM", 0.0236),
    ("CC[C@H](C)[C@H](NC(=O)[C@H](CCCNC(=N)N)NC(=O)[C@H](CCCNC(=N)N)NC(=O)[C@H](CC(C)C)NC(=O)[C@H](CCC(N)=O)NC(=O)[C@H](CCC(=O)O)NC(=O)[C@H](C)NC(=O)[C@@H](NC(=O)[C@H](CNC(=O)c1cccc(S(=O)(=O)F)c1)NC(C)=O)[C@@H](C)CC)C(=O)NCC(=O)N[C@@H](CC(=O)O)C(=O)N[C@@H](CCCNC(=N)N)C(=O)N[C@@H](Cc1ccccc1)C(N)=O (Ac-[Dap](Benzoyl(3-SO2F))IAEQLRRIGDRF-NH2)", "µM", 0.023),
]

Below: the item to evaluate.
Inquiry: What value of IC50 has been recorded for this entry: CC[C@H](C)[C@H](NC(=O)[C@H](CCCNC(=N)N)NC(=O)[C@H](CCCNC(=N)N)NC(=O)[C@H](CC(C)C)NC(=O)[C@H](CCC(N)=O)NC(=O)[C@H](CCC(=O)O)NC(=O)[C@H](C)NC(=O)[C@@H](NC(=O)[C@H](CNC(=O)c1ccc(S(=O)(=O)F)cc1)NC(C)=O)[C@@H](C)CC)C(=O)NCC(=O)N[C@@H](CC(=O)O)C(=O)N[C@@H](CCCNC(=N)N)C(=O)N[C@@H](Cc1ccccc1)C(N)=O (Ac-[Dap](Benzoyl(4-SO2F))IAEQLRRIGDRF-NH2)
Reply text: 0.094
